Assay: Off-target cytotoxicity, galactose-adapted HepG2 cells (Cell Titer Glo, 5 days)
Format: cell-based
Conditions: human, galactose-adapted HepG2, five days incubation, intracellular ATP, read-out: CC50 GALHEPG2 CTG 50
Catalogue of compounds with associated CC50 at 5 days
measuredParameter: CC50 at 5 days (µM)

1. CCCC[C@](CO)(Nc1nc(N)nc2cccnc12)C(F)(F)F
7.73
2. CCCC[C@H](CO)Nc1nc(N)nc2cc(F)cnc12
1.07
3. CCCC[C@@](C)(CO)Nc1nc(N)nc2cc(F)cnc12
3.56
4. CCCC[C@H](CO)Nc1nc(N)nc2cccnc12
1.23
5. CCCC[C@](C)(CO)Nc1nc(N)nc2cc(F)cnc12
6.7
6. CCCC[C@@](C)(Nc1nc(N)nc2cc(F)cnc12)C(C)O (single isomer, unassigned)
28.1
7. CCCC[C@@](C)(Nc1nc(N)nc2cccnc12)C(C)O (single isomer, unassigned)
33
8. CCCC[C@@H](Nc1nc(N)nc2cc(F)cnc12)C(O)CF (stereo partly drawn)
27.4

* * *

Test: Off-target cytotoxicity, Huh-7 cells (Cell Titer Glo, 5 days)
Type: cell-based
Conditions: human, Huh-7 cells; Huh-7, five days incubation, intracellular ATP; read-out: CC50 HEH7 CTG 50
measuredParameter: CC50 at 5 days

1) CCCC[C@H](CO)Nc1nc(N)nc2cc(F)cnc12
9.64 µM
2) CCCC[C@H](CO)Nc1nc(N)nc2cccnc12
19.7 µM
3) CCCC[C@@](C)(CO)Nc1nc(N)nc2cc(F)cnc12
10.4 µM
4) CCCC[C@](C)(CO)Nc1nc(N)nc2cc(F)cnc12
21.9 µM
5) CCCC[C@@](C)(Nc1nc(N)nc2cc(F)cnc12)C(C)O (single isomer, unassigned)
31.3 µM

* * *

Test system: MRC-5 cells
Experiment: Off-target cytotoxicity, MRC-5 cells (Cell Titer Glo, 5 days)
Assay type: cell-based
Settings: MRC-5, five days incubation, intracellular ATP; read-out: CC50 MHCS CTG 50
Procedure: To assess potential off-target toxicity of certain compounds disclosed herein, the in vitro cytotoxicity of those compounds was profiled using a panel of 5 cell lines with various tissue origins. […] Cell viability was determined by measuring intracellular ATP levels following five days of continuous incubation with test compounds. […]
measuredParameter: CC50

1. CCCC[C@](C)(CNC(C)=O)Nc1nc(N)nc2cc(Cl)cnc12 [Compound 65]
44.4 µM
2. CCCC[C@@](C)(Nc1nc(N)nc2cccnc12)C(C)O (single isomer, unassigned) [Compound 97]
44.4 µM
3. CCCC[C@](C)(CNC(C)=O)Nc1nc(N)nc2cccnc12 [Compound 61]
44.4 µM
4. CCCC[C@@H](Nc1nc(N)nc2cc(F)cnc12)C(O)CF (stereo partly shown) [Compound 102]
44.4 µM
5. CCCC[C@](C)(CNC(C)=O)Nc1nc(N)nc2cc(F)cnc12 [Compound 101]
44.4 µM
6. CCCC[C@H](CNC(C)=O)Nc1nc(N)nc2cccnc12 [Compound 51]
44.4 µM
7. CCCC[C@@](C)(Nc1nc(N)nc2cc(F)cnc12)C(C)O (single isomer, unassigned) [Compound 95]
44.4 µM

* * *

Assay: Off-target cytotoxicity, galactose-adapted PC-3 cells (Cell Titer Glo, 5 days)
Type: cell-based
Details: human, galactose-adapted PC-3, five days incubation, intracellular ATP, read-out: CC50 GALFC3 CTG 50
measuredParameter: CC50 at 5 days (µM)

1) CCCC[C@@H](Nc1nc(N)nc2cc(F)cnc12)C(O)CF (stereo partly drawn)
19.1
2) CCCC[C@](C)(CO)Nc1nc(N)nc2cc(F)cnc12
4.53
3) CCCC[C@](C)(CNC(C)=O)Nc1nc(N)nc2cc(Cl)cnc12
44.4
4) CCCC[C@](CO)(Nc1nc(N)nc2cccnc12)C(F)(F)F
3.63
5) CCCC[C@H](CNC(C)=O)Nc1nc(N)nc2cccnc12
37.2
6) CCCC[C@@](C)(CO)Nc1nc(N)nc2cc(F)cnc12
1.99
7) CCCC[C@](C)(CNC(C)=O)Nc1nc(N)nc2cccnc12
44.4
8) CCCC[C@H](CO)Nc1nc(N)nc2cc(F)cnc12
0.52
9) CCCC[C@@](C)(Nc1nc(N)nc2cc(F)cnc12)C(C)O (single isomer, unassigned)
16.8
10) CCCC[C@@](C)(Nc1nc(N)nc2cccnc12)C(C)O (single isomer, unassigned)
27.5
11) CCCC[C@H](CO)Nc1nc(N)nc2cccnc12
0.69
12) CCCC[C@](C)(CNC(C)=O)Nc1nc(N)nc2cc(F)cnc12
44.4

* * *

Catalogue of compounds with associated CC50 at 5 days
Test: Off-target cytotoxicity, MT-4 cells (Cell Titer Glo, 5 days)
Format: cell-based
Settings: human, MT-4, five days incubation, intracellular ATP, read-out: CC50 (MT4)
Experimental: To assess potential off-target toxicity of certain compounds disclosed herein, the in vitro cytotoxicity of those compounds was profiled using a panel of 5 cell lines with various tissue origins. […] Cell viability was determined by measuring intracellular ATP levels following five days of continuous incubation with test compounds. […]
measuredParameter: CC50 at 5 days (µM)

1) CCCC[C@](C)(CNC(C)=O)Nc1nc(N)nc2cc(F)cnc12
56.6
2) CCCC[C@@](C)(CO)Nc1nc(N)nc2cc(F)cnc12
6.79
3) CCCC[C@H](CNC(C)=O)Nc1nc(N)nc2cccnc12
57.1
4) CCCC[C@H](CO)Nc1nc(N)nc2cccnc12
8.62
5) CCCC[C@@H](Nc1nc(N)nc2cc(F)cnc12)C(O)CF (stereo partly drawn)
57.1
6) CCCC[C@](C)(CNC(C)=O)Nc1nc(N)nc2cccnc12
212
7) CCCC[C@@](C)(Nc1nc(N)nc2cccnc12)C(C)O (single isomer, unassigned)
30
8) CCCC[C@](C)(CO)Nc1nc(N)nc2cc(F)cnc12
16.2
9) CCCC[C@@](C)(Nc1nc(N)nc2cc(F)cnc12)C(C)O (single isomer, unassigned)
44.1

* * *

Catalogue of compounds with associated pEC50
Molecular target: human TLR7 (Homo sapiens)
Sequence (Q9NYK1 27-1049): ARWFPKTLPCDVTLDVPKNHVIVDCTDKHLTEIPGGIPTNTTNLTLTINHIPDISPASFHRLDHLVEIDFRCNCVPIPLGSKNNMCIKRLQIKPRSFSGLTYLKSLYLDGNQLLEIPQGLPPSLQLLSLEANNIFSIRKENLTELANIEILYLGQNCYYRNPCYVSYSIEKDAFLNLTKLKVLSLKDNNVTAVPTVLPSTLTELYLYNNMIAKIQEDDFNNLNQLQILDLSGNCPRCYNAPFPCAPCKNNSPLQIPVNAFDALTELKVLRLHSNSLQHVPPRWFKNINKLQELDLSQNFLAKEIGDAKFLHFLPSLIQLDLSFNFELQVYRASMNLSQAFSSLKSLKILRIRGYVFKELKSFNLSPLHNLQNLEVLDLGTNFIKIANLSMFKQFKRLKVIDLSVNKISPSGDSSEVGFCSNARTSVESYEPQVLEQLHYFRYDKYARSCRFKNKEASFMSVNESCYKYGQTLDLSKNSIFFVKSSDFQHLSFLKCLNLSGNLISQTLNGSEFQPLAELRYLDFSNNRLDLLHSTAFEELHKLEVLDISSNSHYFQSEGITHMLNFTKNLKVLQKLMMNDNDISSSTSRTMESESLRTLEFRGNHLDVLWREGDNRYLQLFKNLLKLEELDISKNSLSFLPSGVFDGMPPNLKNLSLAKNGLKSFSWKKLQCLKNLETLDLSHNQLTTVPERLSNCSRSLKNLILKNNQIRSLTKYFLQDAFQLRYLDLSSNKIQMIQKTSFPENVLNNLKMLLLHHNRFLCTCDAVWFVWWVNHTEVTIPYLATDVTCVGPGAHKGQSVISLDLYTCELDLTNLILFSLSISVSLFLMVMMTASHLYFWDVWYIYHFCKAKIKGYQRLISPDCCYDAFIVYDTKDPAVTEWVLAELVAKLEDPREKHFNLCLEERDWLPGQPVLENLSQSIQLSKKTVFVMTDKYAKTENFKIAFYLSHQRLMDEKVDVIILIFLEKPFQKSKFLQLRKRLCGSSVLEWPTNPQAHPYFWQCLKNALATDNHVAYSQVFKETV
Experiment: HEK-Blue human TLR7 cell SEAP reporter assay (NF-κB activation)
Conditions: HEK-Blue human TLR7 cells, stimulation for 20 hours, Quanti Blue read at 640 nm
pEC50: −log10 of the molar value.
measuredParameter: pEC50

1) CCCN(CC(C)C)C(=O)C1=Cc2ccc(C3=NCc4ccccc4N3)cc2N=C(N)C1
< 4.00
2) CCCN(CCC)C(=O)C1=Cc2ccc(C3=NCc4ccccc4N3)cc2N=C(N)C1
< 4.00
3) CCCN(CC1CC1)C(=O)C1=Cc2ccc(C3=NCc4ccccc4N3)cc2N=C(N)C1
< 4.00
4) CCCN(CCC)C(=O)C1=Cc2ccc(C3=NCc4ccncc4N3)cc2N=C(N)C1
< 4.00
5) CCCN(CCC)C(=O)C1=Cc2ccc(-c3cccnc3)cc2N=C(N)C1 [VTX-133, reference compound]
5.73
6) CCCN(CCC)C(=O)C1=Cc2ccc(-c3cncnc3)cc2N=C(N)C1 [VTX-135, reference compound]
5.44
7) CCCN(CCC)C(=O)C1=Cc2ccc(C3=NCc4c(Cl)cccc4N3)cc2N=C(N)C1
< 4.00
8) CCCN(CCC)C(=O)C1=Cc2ccc(C3=NCc4ccc(Cl)cc4N3)cc2N=C(N)C1
< 4.00

* * *

Experiment: Off-target cytotoxicity, MRC-5 cells (Cell Titer Glo, 5 days)
Format: cell-based
Conditions: human, MRC-5 cells; MRC-5, five days incubation, intracellular ATP; read-out: CC50 MHCS CTG 50
Experimental: To assess potential off-target toxicity of certain compounds disclosed herein, the in vitro cytotoxicity of those compounds was profiled using a panel of 5 cell lines with various tissue origins. […] Cell viability was determined by measuring intracellular ATP levels following five days of continuous incubation with test compounds. […]
# note: boundary value 20 µM maps to not satisfied; CC50 at 5 days below it maps to satisfied

1) CCCC[C@@](C)(CO)Nc1nc(N)nc2cc(F)cnc12
satisfied
2) CCCC[C@H](CO)Nc1nc(N)nc2cccnc12
satisfied
3) CCCC[C@](CO)(Nc1nc(N)nc2cccnc12)C(F)(F)F
not satisfied
4) CCCC[C@](C)(CO)Nc1nc(N)nc2cc(F)cnc12
not satisfied
5) CCCC[C@H](CO)Nc1nc(N)nc2cc(F)cnc12
satisfied

* * *

Assay: Off-target cytotoxicity, MT-4 cells (Cell Titer Glo, 5 days)
Assay type: cell-based
Settings: human, MT-4, five days incubation, intracellular ATP, read-out: CC50 (MT4)
measuredParameter: CC50 at 5 days (µM)

1. CCCC[C@](CO)(Nc1nc(N)nc2cccnc12)C(F)(F)F
18.6
2. CCCC[C@H](CO)Nc1nc(N)nc2cc(F)cnc12
1.97
3. CCCC[C@](C)(CNC(C)=O)Nc1nc(N)nc2cc(Cl)cnc12
56.6
